The reported numbers originate from patent US20150148377A1.

# TESTED_SYSTEM: PI3K delta (Homo sapiens, UniProt O00329)
# Construct: for the full-length p110-d subunit are generated and fused by overlapping PCR; His tag (C); Tn5 (Trichoplusia ni) or TiniPro insect cells
# Sequence (O00329 with tags, fused parts or gaps limits assumed): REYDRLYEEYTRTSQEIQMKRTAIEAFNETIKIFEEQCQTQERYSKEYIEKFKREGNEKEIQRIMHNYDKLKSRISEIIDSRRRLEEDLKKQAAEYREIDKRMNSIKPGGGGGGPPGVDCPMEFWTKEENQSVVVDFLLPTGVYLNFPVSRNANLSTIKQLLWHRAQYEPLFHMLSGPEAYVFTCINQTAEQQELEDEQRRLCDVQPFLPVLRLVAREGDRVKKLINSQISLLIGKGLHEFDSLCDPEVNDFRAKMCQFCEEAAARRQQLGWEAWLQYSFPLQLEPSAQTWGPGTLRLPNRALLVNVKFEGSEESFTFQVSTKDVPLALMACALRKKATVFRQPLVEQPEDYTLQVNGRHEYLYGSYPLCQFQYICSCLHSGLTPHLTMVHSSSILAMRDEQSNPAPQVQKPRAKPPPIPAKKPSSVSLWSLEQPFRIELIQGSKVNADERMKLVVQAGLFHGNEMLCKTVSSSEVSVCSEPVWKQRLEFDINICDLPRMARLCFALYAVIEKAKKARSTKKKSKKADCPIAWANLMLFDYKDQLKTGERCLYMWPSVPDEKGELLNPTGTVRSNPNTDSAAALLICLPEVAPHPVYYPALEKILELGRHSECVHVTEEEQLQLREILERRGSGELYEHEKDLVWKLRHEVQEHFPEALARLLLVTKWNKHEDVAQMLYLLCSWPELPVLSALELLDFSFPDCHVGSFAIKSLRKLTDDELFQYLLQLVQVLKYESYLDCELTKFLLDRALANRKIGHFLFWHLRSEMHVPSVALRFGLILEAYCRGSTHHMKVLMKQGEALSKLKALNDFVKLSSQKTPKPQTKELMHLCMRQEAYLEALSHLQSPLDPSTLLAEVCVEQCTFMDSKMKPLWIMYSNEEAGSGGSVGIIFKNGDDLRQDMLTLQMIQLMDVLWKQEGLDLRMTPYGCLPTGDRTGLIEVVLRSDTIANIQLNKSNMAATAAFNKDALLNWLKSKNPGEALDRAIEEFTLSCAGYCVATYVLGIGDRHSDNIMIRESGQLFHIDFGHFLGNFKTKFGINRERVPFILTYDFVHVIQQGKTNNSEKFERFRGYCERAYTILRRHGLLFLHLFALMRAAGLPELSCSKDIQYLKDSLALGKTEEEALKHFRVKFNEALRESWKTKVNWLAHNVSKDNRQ
# PROCEDURE_TEXT: Enzymatic PI3K delta isoform inhibition (lipid kinase activity, Kinase-Glo)
# PROTOCOL_CONDITIONS: enzymatic assay
MEASUREMENT_TYPE: IC50 (nM)
The figure you give is taken to be in nM; do not add the unit.

Would you please look over these solved cases?
# COMPOUND, IC50, nM
records = [
    ("COc1ncc(-c2ccnc3ccc(O[C@H]4CCN(C(=O)C5CCS(=O)(=O)CC5)C4)c(C)c23)cc1C [Example B3]", 5),
    ("CCC(=O)N1CC[C@H](Oc2ccc3nccc(-c4cnc(OC)c(C#N)c4)c3c2)C1 [Example A18]", 7),
    ("COc1ncc(-c2ccnc3ccc(O[C@H]4CCN(C(=O)C5CCS(=O)(=O)CC5)C4)cc23)cc1CF [Example A9]", 4),
]

# lookup: IC50 of COc1ncc(-c2ccnc3ccc(O[C@H]4CCN(C(=O)[C@@H]5CCN(C(C)=O)C5)C4)cc23)cc1C(F)F [Example A24]
12

----------
# TESTED_SYSTEM: PI3K delta (Homo sapiens, UniProt O00329)
# Construct: for the full-length p110-d subunit are generated and fused by overlapping PCR; His tag (C); Tn5 (Trichoplusia ni) or TiniPro insect cells
# PROCEDURE_TEXT: Enzymatic PI3K delta isoform inhibition (lipid kinase activity, Kinase-Glo)
# PROTOCOL_CONDITIONS: enzymatic assay
# Method: In a more preferred assay, the kinase reaction is performed in a final volume of 10 μl per well of a low volume non-binding CORNING, 384 well black plate (Cat. No. #3676). The final concentrations of ATP and phosphatidyl inositol (PI) in the assay are 1 μM and 10 μg/mL, respectively. […] IC50 is determined by a four parameter curve fitting routine that comes along with “excel fit”. […] Alternatively, IC50 values are calculated using idbsXLfit model 204, which is a 4 parameter logistic model. […]
Doc: threshold 20 nM (exclusive). Items with IC50 beneath it return Fulfilled; others return Not fulfilled.

# count of solved cases: 5
# MOLECULE, TESTED_SYSTEM, ASSIGNED_CATEGORY
data = [
    ("COc1ncc(-c2ccnc3ccc(O[C@H]4CCN(C(=O)c5ccc(=O)n(C)c5)C4)cc23)cc1C [Example A32]", "PI3K delta (Homo sapiens, UniProt O00329)", "Not fulfilled"),
    ("COc1ncc(-c2ccnc3ccc(O[C@H]4CCN(C(=O)C5CCS(=O)(=O)CC5)C4)cc23)cc1C(F)F [Example A6]", "PI3K delta (Homo sapiens, UniProt O00329)", "Fulfilled"),
    ("COc1ncc(-c2ccnc3ccc(O[C@H]4CCN(C(=O)C5CCS(=O)(=O)CC5)C4)cc23)cc1C(F)(F)F [Example A8]", "PI3K delta (Homo sapiens, UniProt O00329)", "Fulfilled"),
    ("CC(=O)N1CC[C@@H](C(=O)N2CC[C@H](Oc3ccc4nccc(-c5cnc(S(C)(=O)=O)c(C)c5)c4c3)C2)C1 [Example A21]", "PI3K delta (Homo sapiens, UniProt O00329)", "Fulfilled"),
    ("Nc1ncc(-c2ccnc3ccc(O[C@H]4CCN(C(=O)C5CCOCC5)C4)cc23)cc1C(F)(F)F [Example A29]", "PI3K delta (Homo sapiens, UniProt O00329)", "Fulfilled"),
]

hey, is IC50 for Cc1cc(-c2ccnc3ccc(O[C@H]4CCN(C(=O)C5CCS(=O)(=O)CC5)C4)cc23)cnc1S(C)(=O)=O [Example A23] lower than 20 nM or not?
Fulfilled

hey, is IC50 for CC(=O)N1CC[C@@H](C(=O)N2CC[C@H](Oc3ccc4nccc(-c5cnc(OC(F)F)c(C)c5)c4c3)C2)C1 [Example A35] lower than 20 nM or not?
Not fulfilled

hey, is IC50 for Cc1cc(-c2ccnc3ccc(O[C@H]4CCN(C(=O)C5CCOCC5)C4)cc23)cnc1S(C)(=O)=O [Example A33] lower than 20 nM or not?
Not fulfilled

hey, is IC50 for COc1ncc(-c2ccnc3ccc(O[C@H]4CCN(C(=O)C5CCOCC5)C4)cc23)cc1C [Example A14] lower than 20 nM or not?
Fulfilled

hey, is IC50 for Cc1cc(-c2ccnc3ccc(O[C@H]4CCN(C(=O)C(C)C)C4)cc23)cnc1S(C)(=O)=O [Example A36] lower than 20 nM or not?
Not fulfilled

hey, is IC50 for CS(=O)(=O)c1ncc(-c2ccnc3ccc(O[C@H]4CCN(C(=O)C5CCOCC5)C4)cc23)cc1C(F)F [Example A17] lower than 20 nM or not?
Fulfilled

hey, is IC50 for CCC(=O)N1CC[C@H](Oc2ccc3nccc(-c4cnc(OC)c(C)c4)c3c2)C1 [Example A2] lower than 20 nM or not?
Fulfilled

hey, is IC50 for COc1ncc(-c2ccnc3ccc(O[C@H]4CCN(C(=O)[C@@H]5CCN(C(C)=O)C5)C4)cc23)cc1C(F)(F)F [Example A11] lower than 20 nM or not?
Fulfilled

hey, is IC50 for Cc1cc(-c2ccnc3ccc(O[C@H]4CCN(C(=O)C5CCS(=O)(=O)CC5)C4)cc23)cnc1OC(F)F [Example A38] lower than 20 nM or not?
Not fulfilled

hey, is IC50 for COc1ncc(-c2ccnc3ccc(O[C@H]4CCN(C(=O)[C@@H]5CCN(C(C)=O)C5)C4)cc23)cc1C [Example A10] lower than 20 nM or not?
Fulfilled

----------
# TESTED_SYSTEM: PI3K delta (Homo sapiens)
# Construct: for the full-length p110-d subunit are generated and fused by overlapping PCR; His tag (C); Tn5 (Trichoplusia ni) or TiniPro insect cells
# PROCEDURE_TEXT: Enzymatic PI3K delta isoform inhibition (lipid kinase activity, Kinase-Glo)
# PROTOCOL_CONDITIONS: enzymatic assay
Recorded pIC50 values for a group of molecules are listed next.
pIC50 (log units): -log10 of the concentration in mol/L.

Would you please look over these solved cases?
# MOLECULE, TESTED_SYSTEM, RESULT_VALUE
records = [
    ("COc1ncc(-c2ccnc3ccc(O[C@H]4CCN(C(=O)C5CCOC5)C4)cc23)cc1C#N (stereo partly shown)", "PI3K delta (Homo sapiens)", 8.30),
    ("COc1ncc(-c2ccnc3ccc(O[C@H]4CCN(C(=O)C5CCOCC5)C4)c(C)c23)cc1C#N", "PI3K delta (Homo sapiens)", 7.22),
    ("CCC(=O)N1CC[C@H](Oc2ccc3nccc(-c4cnc(N)c(C(F)(F)F)c4)c3c2)C1", "PI3K delta (Homo sapiens)", 7.57),
    ("Cc1cc(-c2ccnc3ccc(O[C@H]4CCN(C(=O)C5CCOCC5)C4)c(C)c23)cnc1S(C)(=O)=O", "PI3K delta (Homo sapiens)", 7.96),
    ("COc1ncc(-c2ccnc3ccc(O[C@H]4CCN(C(=O)C5CCN(C(C)=O)CC5)C4)cc23)cc1C(F)(F)F", "PI3K delta (Homo sapiens)", 8.15),
]

Provide value of pIC50 for this record tested with PI3K delta (Homo sapiens): "CS(=O)(=O)c1ncc(-c2ccnc3ccc(O[C@H]4CCN(C(=O)C5CCOCC5)C4)cc23)cc1Cl"
7.85

Provide value of pIC50 for this record tested with PI3K delta (Homo sapiens): "COc1ncc(-c2ccnc3ccc(O[C@H]4CCN(C(=O)C5CCOCC5)C4)cc23)cc1F"
8.30

Provide value of pIC50 for this record tested with PI3K delta (Homo sapiens): "COc1ncc(-c2ccnc3ccc(O[C@H]4CCN(C(=O)c5ccc(=O)[nH]c5)C4)c(C)c23)cc1C(F)F"
8.40

Provide value of pIC50 for this record tested with PI3K delta (Homo sapiens): "CS(=O)(=O)c1ncc(-c2ccnc3ccc(O[C@H]4CCN(C(=O)C5CCOCC5)C4)cc23)cc1C(F)(F)F"
7.37

Provide value of pIC50 for this record tested with PI3K delta (Homo sapiens): "COc1ncc(-c2ccnc3ccc(O[C@H]4CCN(C(=O)C5CCS(=O)(=O)CC5)C4)c(C)c23)cc1CF"
7.92

Provide value of pIC50 for this record tested with PI3K delta (Homo sapiens): "COc1ncc(-c2ccnc3ccc(O[C@H]4CCN(C(=O)C5CCOCC5)C4)cc23)cc1C#N"
8.52

Provide value of pIC50 for this record tested with PI3K delta (Homo sapiens): "CC(=O)N1CC[C@@H](C(=O)N2CC[C@H](Oc3ccc4nccc(-c5cnc(OC(F)F)c(C)c5)c4c3C)C2)C1"
7.70

Provide value of pIC50 for this record tested with PI3K delta (Homo sapiens): "CS(=O)(=O)c1ncc(-c2ccnc3ccc(O[C@H]4CCN(C(=O)C5CCOCC5)C4)cc23)cc1CF"
8.15

Provide value of pIC50 for this record tested with PI3K delta (Homo sapiens): "CNc1cc(-c2ccnc3ccc(O[C@H]4CCN(C(=O)C5CCOCC5)C4)cc23)cnc1S(C)(=O)=O"
6.93

Provide value of pIC50 for this record tested with PI3K delta (Homo sapiens): "COc1ncc(-c2ccnc3ccc(O[C@H]4CCN(C(=O)c5cn(C)cn5)C4)cc23)cc1C#N"
7.71
